Reference for the values: ChEMBL document CHEMBL4828725

- Assay remarks: Inhibition of porcine kidney alpha-trehalase using p-nitrophenyl glycoside as substrate assessed as release of p-nitrophenol measured by spectrometric assay
- Parameters: species or system Sus scrofa
- Condition parameters: read-out: IC50
pIC50: −log10 of the molar value.
Measured parameter: pIC50

> print(dat)
                            smiles.str  value
1  OC[C@H]1NC[C@H](O)[C@@H](O)[C@@H]1O   4.32

[a] C[C@]1(CO)NC[C@H](O)[C@@H](O)[C@@H]1O.Cl
[b] CC[C@]1(CO)NC[C@H](O)[C@@H](O)[C@@H]1O.Cl
[c] CCCCCCCCC[C@]1(CO)NC[C@H](O)[C@@H](O)[C@@H]1O.Cl
// sort entries: pIC50, high to low Response format: the labels, sorted as the prompt asks.
a, b, c
(a: 4.38, b: 4.03, c: 3.31)

---

- Assay remarks: Inhibition of bovine liver beta-glucosidase using p-nitrophenyl glycoside as substrate assessed as release of p-nitrophenol measured by spectrometric assay
- Design: species or system Bos taurus
- Condition parameters: read-out: IC50
pIC50: −log10 of the molar value.
Measured parameter: pIC50

> print(dat)
                                 smiles.str  value
1  CCCCCCCCC[C@]1(CO)NC[C@H](O)[C@@H](O)[C@@H]1O.Cl   3.68
2  CCCC[C@@]1(CO)NC[C@H](O)[C@@H](O)[C@@H]1O.Cl   3.83
3  CCCC[C@]1(CO)NC[C@H](O)[C@@H](O)[C@@H]1O.Cl   3.50
4  CCCCCCCCCC[C@@]1(CO)NC[C@H](O)[C@@H](O)[C@@H]1O.Cl   4.08
5  CCCCCCCCC[C@@]1(CO)NC[C@H](O)[C@@H](O)[C@@H]1O.Cl   3.67

[I] CCCCCCCCCCCC[C@@]1(CO)NC[C@H](O)[C@@H](O)[C@@H]1O.Cl
[II] CCCCCCCCCC[C@]1(CO)NC[C@H](O)[C@@H](O)[C@@H]1O.Cl
Which record shows the lower pIC50: the first, I , or the second, II ? Label of pick, please.
I

---

- Target or system: Sucrase-isomaltase, intestinal (Rattus norvegicus)
- Assay remarks: Inhibition of rat intestinal isomaltase using p-nitrophenyl glycoside as substrate assessed as release of p-nitrophenol measured by spectrometric assay
- Condition parameters: read-out: IC50
Measured parameter: IC50 (nM)

> print(dat)
                                 smiles.str  value
1  CCCCCCCCCC[C@]1(CO)NC[C@H](O)[C@@H](O)[C@@H]1O.Cl  13000

[1] CCCCC[C@]1(CO)NC[C@H](O)[C@@H](O)[C@@H]1O.Cl
[2] CC[C@]1(CO)NC[C@H](O)[C@@H](O)[C@@H]1O.Cl
[3] CCCCCCCCC[C@@]1(CO)NC[C@H](O)[C@@H](O)[C@@H]1O.Cl
[4] CCCCCCCC[C@]1(CO)NC[C@H](O)[C@@H](O)[C@@H]1O.Cl
Ascending by IC50, please: list the molecules accordingly. Give me the labels in the order the question wants.
4, 1, 2, 3
(4: 340 nM, 1: 700 nM, 2: 1200 nM, 3: 122000 nM)

---

- Target or system: Sucrase-isomaltase, intestinal (Rattus norvegicus, UniProt P23739)
- Sequence (P23739 1-1013 limits assumed): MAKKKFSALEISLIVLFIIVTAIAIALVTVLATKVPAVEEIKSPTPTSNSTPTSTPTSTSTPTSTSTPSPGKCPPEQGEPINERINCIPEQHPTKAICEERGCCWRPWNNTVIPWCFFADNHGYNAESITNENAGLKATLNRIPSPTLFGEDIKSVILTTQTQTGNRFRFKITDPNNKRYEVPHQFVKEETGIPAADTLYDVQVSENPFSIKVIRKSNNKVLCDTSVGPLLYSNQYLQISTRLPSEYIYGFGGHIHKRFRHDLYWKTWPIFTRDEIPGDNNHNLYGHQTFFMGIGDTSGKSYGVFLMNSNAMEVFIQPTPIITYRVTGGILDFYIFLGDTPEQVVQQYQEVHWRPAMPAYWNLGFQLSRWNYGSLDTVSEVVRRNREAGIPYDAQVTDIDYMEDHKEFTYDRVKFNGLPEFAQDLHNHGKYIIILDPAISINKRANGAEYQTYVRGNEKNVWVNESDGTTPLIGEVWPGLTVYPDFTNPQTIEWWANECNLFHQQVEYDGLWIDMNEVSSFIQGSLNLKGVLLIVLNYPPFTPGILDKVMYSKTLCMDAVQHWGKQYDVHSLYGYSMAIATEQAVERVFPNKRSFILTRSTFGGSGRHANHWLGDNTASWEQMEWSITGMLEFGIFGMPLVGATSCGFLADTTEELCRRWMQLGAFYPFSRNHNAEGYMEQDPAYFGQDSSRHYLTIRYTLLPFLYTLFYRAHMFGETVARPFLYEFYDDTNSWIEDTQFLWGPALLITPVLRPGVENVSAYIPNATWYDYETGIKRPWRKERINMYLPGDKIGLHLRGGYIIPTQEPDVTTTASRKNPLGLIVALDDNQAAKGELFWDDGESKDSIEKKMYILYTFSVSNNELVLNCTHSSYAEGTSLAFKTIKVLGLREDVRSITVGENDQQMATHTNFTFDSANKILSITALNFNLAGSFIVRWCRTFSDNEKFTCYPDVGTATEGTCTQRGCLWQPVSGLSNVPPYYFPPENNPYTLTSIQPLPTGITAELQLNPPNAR
- Sequence (P23739 1014-1841 limits assumed): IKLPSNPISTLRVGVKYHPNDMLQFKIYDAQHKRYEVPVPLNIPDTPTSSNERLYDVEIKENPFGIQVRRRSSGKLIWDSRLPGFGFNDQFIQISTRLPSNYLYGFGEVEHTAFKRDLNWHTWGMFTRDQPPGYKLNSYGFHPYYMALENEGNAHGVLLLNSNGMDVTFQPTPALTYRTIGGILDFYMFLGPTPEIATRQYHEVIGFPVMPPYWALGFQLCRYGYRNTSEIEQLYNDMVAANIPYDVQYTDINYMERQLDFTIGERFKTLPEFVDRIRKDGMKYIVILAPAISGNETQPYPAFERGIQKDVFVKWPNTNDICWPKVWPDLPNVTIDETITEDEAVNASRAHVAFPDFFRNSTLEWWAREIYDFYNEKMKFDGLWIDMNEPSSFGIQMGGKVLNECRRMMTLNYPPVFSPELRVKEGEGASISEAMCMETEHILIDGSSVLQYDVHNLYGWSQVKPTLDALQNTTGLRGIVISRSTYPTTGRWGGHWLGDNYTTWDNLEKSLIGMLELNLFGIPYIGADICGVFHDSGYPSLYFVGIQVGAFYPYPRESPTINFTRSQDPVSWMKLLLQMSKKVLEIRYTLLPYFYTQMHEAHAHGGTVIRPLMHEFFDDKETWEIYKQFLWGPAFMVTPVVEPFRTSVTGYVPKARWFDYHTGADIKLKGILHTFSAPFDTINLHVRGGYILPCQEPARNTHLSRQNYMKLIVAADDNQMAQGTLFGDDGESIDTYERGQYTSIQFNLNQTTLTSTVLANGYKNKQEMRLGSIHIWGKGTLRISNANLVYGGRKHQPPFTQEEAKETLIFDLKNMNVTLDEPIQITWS
- Assay remarks: Inhibition of rat intestinal sucrase using p-nitrophenyl glycoside as substrate assessed as release of p-nitrophenol measured by spectrometric assay
- Condition parameters: read-out: IC50
pIC50: −log10 of the molar value.
Measured parameter: pIC50

> print(dat)
                                 smiles.str  measured.parameter  value
1  CCCCCCCC[C@]1(CO)NC[C@H](O)[C@@H](O)[C@@H]1O.Cl               pIC50   6.92
2  CCCCCCC[C@@]1(CO)NC[C@H](O)[C@@H](O)[C@@H]1O.Cl               pIC50   4.05
3  CCCCCCC[C@]1(CO)NC[C@H](O)[C@@H](O)[C@@H]1O.Cl               pIC50   6.64
4  CCCC[C@@]1(CO)NC[C@H](O)[C@@H](O)[C@@H]1O.Cl               pIC50   3.62
5  C[C@]1(CO)NC[C@H](O)[C@@H](O)[C@@H]1O.Cl               pIC50   6.70
6  C[C@@]1(CO)NC[C@H](O)[C@@H](O)[C@@H]1O.Cl               pIC50   4.60
7  CCCCCCCCCCC[C@]1(CO)NC[C@H](O)[C@@H](O)[C@@H]1O.Cl               pIC50   6.72
8  CC[C@@]1(CO)NC[C@H](O)[C@@H](O)[C@@H]1O.Cl               pIC50   5.06
9  CCCCCC[C@]1(CO)NC[C@H](O)[C@@H](O)[C@@H]1O.Cl               pIC50   6.85

[A] CC[C@]1(CO)NC[C@H](O)[C@@H](O)[C@@H]1O.Cl
[B] CCCCCCCCC[C@]1(CO)NC[C@H](O)[C@@H](O)[C@@H]1O.Cl
Higher pIC50: A or B ? API: response body contains the label of the selected item.
A
